Experimental protocol: Thermodynamic solubility in pH 7.4 buffer
Assay type: physicochemical
Experimental setup: read-out: Therm_solubility
Quantity kind: solubility thermodynamic (µg/mL)
Express the result in µg/mL but write the number alone.

Which solubility thermodynamic is reported for this compound? O=C1N(c2cccnc2C(F)(F)F)CC2(CCN(CCc3ccccc3F)CC2)OC12CC2 160

###

Target system: Sigma non-opioid intracellular receptor 1 (Homo sapiens)
Sequence (Q99720 whole entry): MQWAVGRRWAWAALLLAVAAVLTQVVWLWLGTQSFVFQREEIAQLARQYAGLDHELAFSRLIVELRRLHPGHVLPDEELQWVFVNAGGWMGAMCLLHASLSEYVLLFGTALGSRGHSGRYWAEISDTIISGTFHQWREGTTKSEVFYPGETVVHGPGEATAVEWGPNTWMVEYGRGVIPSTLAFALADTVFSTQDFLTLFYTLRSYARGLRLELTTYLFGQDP
Experimental protocol: Displacement of [3H]-(+)-pentazocine from human sigma-1 receptor expressed in HEK293 membranes incubated for 120 mins by liquid scintillation counting method
Reported log10 Ki values follow for various molecules
Base-10 log of Ki, unit nM.

Please review the following examples before continuing.
{"columns": ["Molecule", "log10 Ki"],
 "data": [
  ["O=C1COC2(CCN(Cc3ccccc3)CC2)CN1c1ccccc1", 1.41],
  ["CC1OC2(CCN(CCc3ccncc3)CC2)CN(c2ccccc2)C1=O (stereo not drawn)", 2.05],
  ["CC1OC2(CCN(CCc3ccccc3)CC2)CN(c2cnccn2)C1=O (stereo not drawn)", 1.11],
  ["CC1OC2(CCN(CCc3ccccc3)CC2)CN(c2ccccc2O)C1=O (stereo not drawn)", 1.71],
  ["CC(=O)Nc1cccc(CCN2CCC3(CC2)CN(c2ccccc2)C(=O)[C@@H](C)O3)c1", 2.31]
]}

Field request: log10 Ki | item: O=C1OC2(CCN(CCc3ccccc3)CC2)CN1c1ccccc1 1.74

Same for CC1OC2(CCN(CCc3ccccc3)CC2)CN(c2cncc(C(F)(F)F)c2)C1=O (stereo not drawn) 1.15

Next molecule: COC(=O)CC1OC2(CCN(CCc3ccccc3)CC2)CN(c2ccccc2)C1=O (stereo not drawn) 1.73

Queued: CN(C)C(=O)CC1OC2(CCN(CCc3ccccc3)CC2)CN(c2ccccc2)C1=O (stereo not drawn) 2.44

Same for C[C@H]1OC2(CCN(CCc3ccccc3F)CC2)CN(c2ncccc2C(F)(F)F)C1=O 2.01

Try this molecule next: CC(=O)Nc1ccc(CCN2CCC3(CC2)CN(c2ccccc2)C(=O)C(C)O3)cc1 (stereo not drawn) 2.37

Now this one: O=C1C(COCc2ccccc2)OC2(CCN(CCc3ccccc3)CC2)CN1c1ccccc1 (stereo not drawn) 1.60
